# System: 885724-159-R-J1-PDC complex spheroid viability
# experimental-details: Anticancer human tumor 885724-159-R-J1-PDC patient-derived pancreatic adenocarcinoma cell line growth inhibition [POLQ]
# condition-parameters: second compound 0.0316 µM; first compound 0.1 µM; hits give low values
# key: entry, value: viability, T/C
Could you give me the number in %? Just the number is fine.

Examples with answers:
Cn1ncnc1[C@H]1c2n[nH]c(=O)c3cc(F)cc(c23)N[C@@H]1c1ccc(F)cc1 + Nc1ccc(C#CCN(C(=O)Cc2ncc(C(F)(F)F)cc2C(F)(F)F)c2ccc(F)cc2)nn1
86.8
CC1COCCN1c1cc(-c2ccnn2C)c2ccnc(-c3ccn[nH]3)c2n1 (stereo not given) + COC1C(OC(N)=O)C(O)C(Oc2ccc3c(O)c(NC(=O)c4ccc(O)c(CC=C(C)C)c4)c(=O)oc3c2C)OC1(C)C
63.8
COc1cccc(OCCCN)c1-c1cc(Nc2cnc(C#N)cn2)n[nH]1 + COC1C(OC(N)=O)C(O)C(Oc2ccc3c(O)c(NC(=O)c4ccc(O)c(CC=C(C)C)c4)c(=O)oc3c2C)OC1(C)C
41.1
COc1cc(C2c3cc4c(cc3C(OC3OC5COC(C)OC5C(O)C3O)C3COC(=O)C23)OCO4)cc(OC)c1O (stereo not given) + Nc1ccc(C#CCN(C(=O)Cc2ncc(C(F)(F)F)cc2C(F)(F)F)c2ccc(F)cc2)nn1
86.6
O=C(Nc1ccc(O)c(NS(=O)(=O)c2ccc(F)cc2)c1)c1ccc(-c2ccccc2)cc1 + COC1C(OC(N)=O)C(O)C(Oc2ccc3c(O)c(NC(=O)c4ccc(O)c(CC=C(C)C)c4)c(=O)oc3c2C)OC1(C)C
91.9

Indicate its recorded viability, T/C; the compound in question is CNCc1ccc(-c2[nH]c3cc(F)cc4c3c2CCNC4=O)cc1 + COC1C(OC(N)=O)C(O)C(Oc2ccc3c(O)c(NC(=O)c4ccc(O)c(CC=C(C)C)c4)c(=O)oc3c2C)OC1(C)C
96.7

Answer with the recorded viability, T/C of C#Cc1c(F)ccc2cc(O)cc(-c3ncc4c(N5CC6CCC(C5)N6)nc(OCC56CCCN5CC(F)C6)nc4c3F)c12 (stereo not given) + Cc1cccc(N(C)C(=O)C2C(O)CCN2c2nc(C)cc(C(F)(F)F)c2C#N)c1 only.
92.6

// fetch viability, T/C given entry CC[C@@]1(O)C(=O)OCc2c1cc1n(c2=O)Cc2cc3c(CN(C)C)c(O)ccc3nc2-1 + Nc1ccc(C#CCN(C(=O)Cc2ncc(C(F)(F)F)cc2C(F)(F)F)c2ccc(F)cc2)nn1
63.3

Answer with reported viability, T/C of COc1ccc([C@@H](O)c2cc(-c3ncnc4cc(N5CCOCC5)ccc34)c(F)cc2Cl)nn1 + Nc1ccc(C#CCN(C(=O)Cc2ncc(C(F)(F)F)cc2C(F)(F)F)c2ccc(F)cc2)nn1
105

---

# Test system: 885724-159-R-J1-PDC complex spheroid viability
# experimental-details: Anticancer human tumor 885724-159-R-J1-PDC cell line growth inhibition [POLQ];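 also: spheroids exposed to compounds for 7 days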
# condition-parameters: second compound 10 µM; first compound 0.0316 µM; hits give low values
property-measured: viability, T/C (%)
The reply should be a number in %, with the unit left off.

Provide only the value of recorded viability, T/C for CCc1cc2c(N3CCc4c(cc(Cn5ccnc5)cc4-c4cn(C)nc4C(F)(F)F)C3=O)ccnc2c(OC)n1 + COC1C(OC(N)=O)C(O)C(Oc2ccc3c(O)c(NC(=O)c4ccc(O)c(CC=C(C)C)c4)c(=O)oc3c2C)OC1(C)C
80.6

Give the reported viability, T/C for this compound. COc1cccc2c1C(=O)c1c(O)c3c(c(O)c1C2=O)CC(O)(C(=O)CO)CC3OC1CC(N)C(O)C(C)O1 (stereo not given) + COC1C(OC(N)=O)C(O)C(Oc2ccc3c(O)c(NC(=O)c4ccc(O)c(CC=C(C)C)c4)c(=O)oc3c2C)OC1(C)C
64.2

Return viability, T/C for the following compound: CCCS(=O)(=O)Nc1ccc(F)c(C(=O)c2c[nH]c3ncc(-c4ccc(Cl)cc4)cc23)c1F + Cc1cccc(N(C)C(=O)C2C(O)CCN2c2nc(C)cc(C(F)(F)F)c2C#N)c1
101

Please report the measured viability, T/C for CC1COCCN1c1cc(C2(O)CC3CCC(C2)O3)c2cnn(-c3ccn[nH]3)c2n1 (stereo not given) + Cc1cccc(N(C)C(=O)C2C(O)CCN2c2nc(C)cc(C(F)(F)F)c2C#N)c1
70.6

Input CC1COCCN1c1cc(C2(S(C)(=N)=O)CC2)nc(-c2ccnc3[nH]ccc23)n1 (stereo not given) + COC1C(OC(N)=O)C(O)C(Oc2ccc3c(O)c(NC(=O)c4ccc(O)c(CC=C(C)C)c4)c(=O)oc3c2C)OC1(C)C , output reported viability, T/C.
111
